- test target: UniProt:P63073
- Sequence (P63073 whole entry): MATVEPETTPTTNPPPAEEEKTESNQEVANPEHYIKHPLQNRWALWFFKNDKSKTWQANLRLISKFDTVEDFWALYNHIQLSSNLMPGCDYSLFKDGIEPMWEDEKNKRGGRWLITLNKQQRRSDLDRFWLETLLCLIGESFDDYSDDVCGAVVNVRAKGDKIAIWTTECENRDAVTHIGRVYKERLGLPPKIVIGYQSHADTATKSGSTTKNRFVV
- experiment notes: blockers of eIF4G binding by eIF4E – biochemical, TR-FRET, dose response (AID 855);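 also: potency for disrupting eIF4E binding to eIF4GI seen as loss of FRET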
- Assay type: functional
Calls of active or inactive are those of the source.
quantity: IC50

COc1cc2c(-c3ccc(O)cc3)nc3c(c(C)nn3-c3ccccc3)c2cc1OC ... 53.5 µM (inactive)

Exercise: Item Cc1cccc(N2CCc3c2nc2ccccc2c3N)c1 has what recorded IC50?
Solution: > 64 µM (inactive)

Exercise: Item: CCn1c(C)nc2cc(C(=O)N/N=C/c3ccc(O)c(O)c3O)ccc21
Solution: 27.5 µM (active)

Exercise: Follow-up item: Cc1ccc2c(Cl)cc(Cl)c(OCC(=O)NCc3ccco3)c2n1
Solution: 12.5 µM (active)

Exercise: Note, next up: COc1cc(OC)c(/C=N/NC(=O)c2ccc(NC(C)=O)cc2)cc1Br
Solution: 50 µM (inactive)

###

- test target: UniProt P49327
- Sequence (P49327 whole entry): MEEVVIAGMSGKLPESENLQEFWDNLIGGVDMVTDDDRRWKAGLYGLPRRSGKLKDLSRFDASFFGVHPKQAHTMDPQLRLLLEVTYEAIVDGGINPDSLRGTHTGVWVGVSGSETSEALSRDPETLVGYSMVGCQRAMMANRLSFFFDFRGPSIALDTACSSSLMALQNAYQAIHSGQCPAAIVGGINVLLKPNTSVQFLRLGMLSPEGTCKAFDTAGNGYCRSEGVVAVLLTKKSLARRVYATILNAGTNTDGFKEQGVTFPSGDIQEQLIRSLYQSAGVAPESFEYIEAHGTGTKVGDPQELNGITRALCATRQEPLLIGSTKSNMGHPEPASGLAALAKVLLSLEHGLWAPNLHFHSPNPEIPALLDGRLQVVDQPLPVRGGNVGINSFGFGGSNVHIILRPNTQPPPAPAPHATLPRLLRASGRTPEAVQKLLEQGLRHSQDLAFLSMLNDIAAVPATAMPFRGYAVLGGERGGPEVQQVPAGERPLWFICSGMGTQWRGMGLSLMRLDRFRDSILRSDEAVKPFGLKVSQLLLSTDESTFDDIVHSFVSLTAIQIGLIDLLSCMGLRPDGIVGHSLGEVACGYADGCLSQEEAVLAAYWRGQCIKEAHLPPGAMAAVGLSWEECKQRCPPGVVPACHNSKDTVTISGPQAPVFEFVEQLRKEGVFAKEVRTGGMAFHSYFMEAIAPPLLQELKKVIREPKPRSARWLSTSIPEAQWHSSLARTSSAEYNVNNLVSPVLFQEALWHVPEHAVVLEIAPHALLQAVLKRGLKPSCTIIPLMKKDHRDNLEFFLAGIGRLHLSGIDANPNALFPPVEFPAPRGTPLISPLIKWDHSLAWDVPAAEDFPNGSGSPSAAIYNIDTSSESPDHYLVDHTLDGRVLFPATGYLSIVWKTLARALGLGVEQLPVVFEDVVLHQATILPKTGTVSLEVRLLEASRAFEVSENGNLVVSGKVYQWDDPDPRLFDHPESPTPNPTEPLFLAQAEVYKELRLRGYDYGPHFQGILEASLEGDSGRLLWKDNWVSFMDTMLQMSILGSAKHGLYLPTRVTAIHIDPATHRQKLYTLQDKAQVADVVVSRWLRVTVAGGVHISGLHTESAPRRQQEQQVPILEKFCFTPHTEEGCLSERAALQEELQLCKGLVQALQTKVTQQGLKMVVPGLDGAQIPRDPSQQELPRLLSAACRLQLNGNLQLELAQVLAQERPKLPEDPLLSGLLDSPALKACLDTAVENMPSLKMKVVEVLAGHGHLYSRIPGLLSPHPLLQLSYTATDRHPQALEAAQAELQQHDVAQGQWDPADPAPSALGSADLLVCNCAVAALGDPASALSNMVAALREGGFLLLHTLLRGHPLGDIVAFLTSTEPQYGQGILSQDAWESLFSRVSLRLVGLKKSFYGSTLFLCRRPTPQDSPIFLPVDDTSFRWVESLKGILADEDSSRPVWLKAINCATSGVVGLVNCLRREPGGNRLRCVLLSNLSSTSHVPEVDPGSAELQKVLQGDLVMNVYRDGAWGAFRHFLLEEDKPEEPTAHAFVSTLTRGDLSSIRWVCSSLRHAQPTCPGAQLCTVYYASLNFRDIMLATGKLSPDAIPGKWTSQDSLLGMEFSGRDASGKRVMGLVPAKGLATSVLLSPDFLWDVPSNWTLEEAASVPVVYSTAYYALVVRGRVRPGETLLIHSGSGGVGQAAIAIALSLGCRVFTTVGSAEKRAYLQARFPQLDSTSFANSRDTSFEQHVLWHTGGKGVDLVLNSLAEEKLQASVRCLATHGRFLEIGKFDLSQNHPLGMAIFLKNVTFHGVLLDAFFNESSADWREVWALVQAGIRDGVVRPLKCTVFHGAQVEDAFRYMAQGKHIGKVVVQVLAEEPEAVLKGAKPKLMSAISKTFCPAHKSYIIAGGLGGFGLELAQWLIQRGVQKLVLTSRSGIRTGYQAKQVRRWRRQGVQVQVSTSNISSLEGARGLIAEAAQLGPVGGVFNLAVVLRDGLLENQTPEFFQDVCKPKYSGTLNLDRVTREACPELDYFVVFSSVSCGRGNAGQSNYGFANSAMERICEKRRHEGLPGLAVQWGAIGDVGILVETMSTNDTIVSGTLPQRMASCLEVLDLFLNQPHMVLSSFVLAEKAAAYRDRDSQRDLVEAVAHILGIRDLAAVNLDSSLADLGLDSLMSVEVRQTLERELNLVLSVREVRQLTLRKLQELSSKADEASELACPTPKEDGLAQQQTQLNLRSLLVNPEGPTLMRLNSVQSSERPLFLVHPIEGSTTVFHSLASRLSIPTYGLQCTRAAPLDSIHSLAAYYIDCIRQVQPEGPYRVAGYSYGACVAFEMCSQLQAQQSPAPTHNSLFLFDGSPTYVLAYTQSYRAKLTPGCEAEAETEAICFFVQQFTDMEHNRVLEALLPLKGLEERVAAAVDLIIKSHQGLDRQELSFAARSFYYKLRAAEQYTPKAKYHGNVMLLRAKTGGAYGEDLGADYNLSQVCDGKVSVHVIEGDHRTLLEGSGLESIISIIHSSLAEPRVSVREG
- experiment notes: inhibition of human FAS-TE enzyme activity – biochemical, kinetic fluorescence intensity, dose response (AID 624326);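 also: rate of fluorescence rise from hydrolysis of a fluorogenic O-methyl fluorescein ester substrate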
- Type: functional
The source made the active and inactive calls.
Each item that follows carries a reported IC50.

Please review the entries below; each comes with its answer.
C=CCOC(=O)COc1ccc2c(C)c(CC)c(=O)oc2c1 ... 3.08 µM (active)
CCCCCN(CCCCC)C(=O)C(CCC(=O)O)NC(=O)c1ccc(Cl)c(Cl)c1 (stereo not given) [LORGLUMIDE SODIUM] ... 5.31 µM (active)
CC(C)(C)c1cc(Br)c(O)c(N=Nc2ccc(S(=O)(=O)N3CCOCC3)cc2)c1 ... 2.66 µM (active)
CC(C)c1ccc(/C=N/NC(=O)CN(c2cccc(Cl)c2Cl)S(C)(=O)=O)cc1 ... 7.36 µM (active)

// next item, IC50 requested
Exercise: So what's the measured IC50 for this one? COc1ccc(C(=O)OCC(=O)NCCCc2ccccc2)cc1[N+](=O)[O-]
Solution: 4.84 µM (active)

###

- test target: Mu-type opioid receptor (Homo sapiens);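 also: U2OS cells expressing OPRM1 and beta-arrestin as split beta-galactosidase partners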
- Sequence (P35372 whole entry): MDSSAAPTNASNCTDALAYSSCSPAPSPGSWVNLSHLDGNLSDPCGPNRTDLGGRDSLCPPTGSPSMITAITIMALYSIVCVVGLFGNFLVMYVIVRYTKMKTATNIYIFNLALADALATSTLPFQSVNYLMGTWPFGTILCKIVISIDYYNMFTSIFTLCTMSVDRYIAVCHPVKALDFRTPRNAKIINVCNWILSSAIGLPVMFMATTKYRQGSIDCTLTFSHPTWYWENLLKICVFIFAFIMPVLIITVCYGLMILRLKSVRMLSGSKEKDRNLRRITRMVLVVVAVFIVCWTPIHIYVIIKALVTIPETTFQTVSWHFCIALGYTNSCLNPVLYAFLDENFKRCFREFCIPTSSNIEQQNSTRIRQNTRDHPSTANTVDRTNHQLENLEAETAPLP
- experiment notes: Counterscreen for agonists of heterodimerization of the mu 1 (OPRM1) and delta 1 (OPRD1) opioid receptors: Luminescence-based cell-based high throughput dose response assay to identify agonists of OPRM1 homodimerization.
- Format: functional
Calls of active or inactive are those of the source.
Answer with one of the outcomes given here: class 1 (active), class 0 (inactive)

Exercise: Recorded call for CN(C)CCCN(C(=O)c1ccc(S(=O)(=O)N2CCc3ccccc3C2)cc1)c1nc2ccc(F)cc2s1 ?
Solution: class 1

Exercise: Also, CCn1cc(CNCc2cn(-c3ccccc3C)nc2-c2ccc(OC)c(F)c2)cn1 please.
Solution: class 0

Exercise: For CCOC(=O)C1(CCCc2ccccc2)CCN(Cc2cnn(C)c2)CC1 then?
Solution: class 0

Exercise: Query Cc1ccc(-n2cc(CNC(C)c3cnn(C)c3C)c(-c3ccc(F)cc3)n2)cc1 (centres undefined) next
Solution: class 0

###

- System: Streptococcus
- experiment notes: GAS UMAA2166 growth inhibition – luminescence, BacTiterGlo, counter-screen for streptokinase expression inhibitor project, dose response (AID 1915);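 also: potency for reduction of bacterial viability or growth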
- Type: functional, organism-based
Activity calls are given as the source filed them.
quantity: EC50

Worked cases, answers included:
COc1ccc(/C=C/C(=O)NC(=S)NNC(=O)Cc2cccs2)cc1 ... 20.9 µM (active)
CC1=C(C(=O)Nc2ccc([N+](=O)[O-])cc2)C(c2cccc(C(F)(F)F)c2)N=C(S)N1c1ccccc1 (stereo unspecified) ... 20.5 µM (active)
CC1Cc2ccccc2N1C(=S)NC(=O)c1ccc(Cl)cc1Cl (stereo unspecified) ... 13.7 µM (active)
NNC(=O)c1ccc(OCC2CC(c3ccc(Cl)cc3)=NO2)cc1 (stereo unspecified) ... > 150 µM (not active)
Cc1ccc(C2C(/C=C3/SC(=S)NC3=O)=C(c3cccs3)Oc3ccccc32)cc1 (stereo unspecified) ... 1.11 µM (active)

As a next step, examine the molecule that follows.
Exercise: What does the record list as EC50 for CCOC(=O)c1cccnc1SCC(=O)NC(C)CC (stereo unspecified) ?
Solution: > 150 µM (not active)
